Biological target: NLRP3 (Homo sapiens)
Sequence (Q96P20 whole entry): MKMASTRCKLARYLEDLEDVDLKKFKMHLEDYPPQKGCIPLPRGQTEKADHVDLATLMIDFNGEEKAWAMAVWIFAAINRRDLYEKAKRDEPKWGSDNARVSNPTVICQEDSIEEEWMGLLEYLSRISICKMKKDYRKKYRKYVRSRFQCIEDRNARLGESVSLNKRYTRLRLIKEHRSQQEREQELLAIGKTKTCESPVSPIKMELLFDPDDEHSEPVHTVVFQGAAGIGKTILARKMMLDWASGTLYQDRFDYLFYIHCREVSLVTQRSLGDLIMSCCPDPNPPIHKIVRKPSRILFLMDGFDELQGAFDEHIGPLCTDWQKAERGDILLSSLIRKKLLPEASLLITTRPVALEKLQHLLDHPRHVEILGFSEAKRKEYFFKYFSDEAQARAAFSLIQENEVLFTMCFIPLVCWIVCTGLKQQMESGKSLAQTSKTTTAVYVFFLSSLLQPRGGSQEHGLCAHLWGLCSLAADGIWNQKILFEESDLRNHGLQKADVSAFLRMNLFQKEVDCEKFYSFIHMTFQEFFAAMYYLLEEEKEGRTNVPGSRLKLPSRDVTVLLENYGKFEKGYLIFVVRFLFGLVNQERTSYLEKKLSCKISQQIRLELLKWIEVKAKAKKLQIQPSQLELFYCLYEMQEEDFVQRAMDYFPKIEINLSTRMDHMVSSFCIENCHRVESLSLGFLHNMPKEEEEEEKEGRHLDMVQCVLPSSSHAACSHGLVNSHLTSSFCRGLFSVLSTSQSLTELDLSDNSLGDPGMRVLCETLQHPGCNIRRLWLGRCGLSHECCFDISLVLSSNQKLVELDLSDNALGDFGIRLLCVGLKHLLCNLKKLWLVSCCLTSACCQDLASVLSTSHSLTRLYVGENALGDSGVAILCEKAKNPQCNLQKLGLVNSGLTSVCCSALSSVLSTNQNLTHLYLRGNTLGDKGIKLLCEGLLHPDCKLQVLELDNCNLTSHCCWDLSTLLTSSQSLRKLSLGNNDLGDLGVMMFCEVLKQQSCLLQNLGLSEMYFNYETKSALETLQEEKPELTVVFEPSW
Assay: Human whole blood IL-1β release assay (LPS + nigericin, AlphaLisa)
Format: cell-based
Set-up: Plate out 80 μl of whole blood containing 1 μg/ml of LPS; from tissue; host or cells: human whole blood from healthy volunteer donors
Conditions: NLRP3 inhibitory activity, 1 μg/ml LPS, 3 hrs compound, nigericin 10 μM 1 hr, read-out: HWB IC50
Method: For systemic delivery, the ability to inhibit NLRP3 when the compounds are present within the bloodstream is of great importance. For this reason, the NLRP3 inhibitory activity of a number of compounds in human whole blood was investigated in accordance with the following protocol. Human whole blood in Li-heparin tubes was obtained from healthy donors from a volunteer donor panel. • 1. […] IL-1β was measured according to the manufacturer protocol (Perkin Elmer-AlphaLisa IL-1 Kit AL220F-5000) • 8. […]
pIC50: −log10 of the molar value.
RESULT TYPE: pIC50

Item CC(C)c1cccc2c1CC(=O)NS(=O)(=O)c1cnn(c1)CCOc1cc-2ccn1 with NLRP3 (Homo sapiens) - pIC50? 5.00 to 5.30

Item CC(C)c1cccc2c1CC(=O)NS(=O)(=O)c1cn(cn1)C(C)(C)COc1cc-2ccn1 with NLRP3 (Homo sapiens) - pIC50? 5.30 to 6.00

Item CC1(C)COc2cc(ccn2)-c2cccc(C3CC3)c2CC(=O)NS(=O)(=O)c2nn1cc2F with NLRP3 (Homo sapiens) - pIC50? 6.00 to 6.30

Item CC(C)c1cccc2c1CC(=O)NS(=O)(=O)c1cc(CN(C)C)n(n1)CCCCCOc1cc-2ccn1 with NLRP3 (Homo sapiens) - pIC50? 5.00 to 5.30

Item CC(C)c1cccc2c1CC(=O)NS(=O)(=O)c1ccn(n1)CCOc1cc-2ccn1 with NLRP3 (Homo sapiens) - pIC50? 5.00 to 5.30

Item CC(C)c1cccc2c1CC(=O)NS(=O)(=O)c1cnn(n1)C(C)(C)COc1cc-2ccn1 with NLRP3 (Homo sapiens) - pIC50? 5.30 to 6.00

Item CC(C)c1cc(F)cc2c1CC(=O)NS(=O)(=O)c1cc(C(=O)N(C)C)n(n1)C(C)(C)COc1cc-2ccn1 with NLRP3 (Homo sapiens) - pIC50? 5.30 to 6.00

Item Cc1ccc(C(C)C)c2c1-c1ccnc(c1)OCCn1cc(F)c(n1)S(=O)(=O)NC(=O)C2 with NLRP3 (Homo sapiens) - pIC50? 5.30 to 6.00

Item CC(C)c1cc(F)cc2c1CC(=O)NS(=O)(=O)c1nn(cc1F)C1(CC1)COc1cc-2ccn1 with NLRP3 (Homo sapiens) - pIC50? 5.30 to 6.00

Item CC(C)(O)c1cc2cc(c1)S(=O)(=O)NC(=O)Cc1c(ccc3c1CCC3)-c1ccnc(c1)OCC2 with NLRP3 (Homo sapiens) - pIC50? 5.30 to 6.00

Item CC(C)c1cccc2c1CC(=O)NS(=O)(=O)c1ccn(n1)CCOc1cc-2cnn1 with NLRP3 (Homo sapiens) - pIC50? 5.00 to 5.30

Item Cc1nn2cc1S(=O)(=O)NC(=O)Cc1c(cccc1C(C)C)-c1ccnc(c1)OCC2(C)C with NLRP3 (Homo sapiens) - pIC50? 5.30 to 6.00

Item CC(C)c1cccc2c1CC(=O)NS(=O)(=O)c1cc(n(C(C)C)n1)CCOc1cc-2ccn1 with NLRP3 (Homo sapiens) - pIC50? 5.30 to 6.00

Item Cc1ccc(C(C)C)c2c1-c1ccnc(c1)OCC(C)(C)n1ccc(n1)S(=O)(=O)NC(=O)C2 with NLRP3 (Homo sapiens) - pIC50? 6.00 to 6.30

Item CC(C)c1cccc2c1CC(=O)NS(=O)(=O)c1ccn(n1)C(C)(C)COc1cc-2ccn1 with NLRP3 (Homo sapiens) - pIC50? 5.30 to 6.00

Item CC(C)c1cc(F)cc2c1CC(=O)NS(=O)(=O)c1nn(c(C(=O)N(C)C)c1F)C(C)(C)COc1cc-2ccn1 with NLRP3 (Homo sapiens) - pIC50? 5.30 to 6.00

Item CC(C)c1cc(F)cc2c1CC(=O)NS(=O)(=O)c1nn(cc1F)C(C)(C)COc1cc-2ccn1 with NLRP3 (Homo sapiens) - pIC50? 5.30 to 6.00

Item CCN1CCc2c3nn(c2C1)C(C)(C)COc1cc(ccn1)-c1cc(F)cc(C(C)C)c1CC(=O)NS3(=O)=O with NLRP3 (Homo sapiens) - pIC50? 5.30 to 6.00

Item COc1cn2nc1S(=O)(=O)NC(=O)Cc1c(cc(F)cc1C(C)C)-c1ccnc(c1)OCC2(C)C with NLRP3 (Homo sapiens) - pIC50? 6.00 to 6.30

Item CC(C)c1cccc2c1CC(=O)NS(=O)(=O)c1cc(cc(C(C)(C)O)c1)CCOc1cc-2ccn1 with NLRP3 (Homo sapiens) - pIC50? 5.30 to 6.00

Item CC(C)c1cc(F)cc2c1CC(=O)NS(=O)(=O)c1cnn(c1)CCOc1cc-2ccn1 with NLRP3 (Homo sapiens) - pIC50? 5.00 to 5.30
